Source listed as the supplement of paper PMC3334620.

Target: Upc2 (UniProt Q12151)
Sequence: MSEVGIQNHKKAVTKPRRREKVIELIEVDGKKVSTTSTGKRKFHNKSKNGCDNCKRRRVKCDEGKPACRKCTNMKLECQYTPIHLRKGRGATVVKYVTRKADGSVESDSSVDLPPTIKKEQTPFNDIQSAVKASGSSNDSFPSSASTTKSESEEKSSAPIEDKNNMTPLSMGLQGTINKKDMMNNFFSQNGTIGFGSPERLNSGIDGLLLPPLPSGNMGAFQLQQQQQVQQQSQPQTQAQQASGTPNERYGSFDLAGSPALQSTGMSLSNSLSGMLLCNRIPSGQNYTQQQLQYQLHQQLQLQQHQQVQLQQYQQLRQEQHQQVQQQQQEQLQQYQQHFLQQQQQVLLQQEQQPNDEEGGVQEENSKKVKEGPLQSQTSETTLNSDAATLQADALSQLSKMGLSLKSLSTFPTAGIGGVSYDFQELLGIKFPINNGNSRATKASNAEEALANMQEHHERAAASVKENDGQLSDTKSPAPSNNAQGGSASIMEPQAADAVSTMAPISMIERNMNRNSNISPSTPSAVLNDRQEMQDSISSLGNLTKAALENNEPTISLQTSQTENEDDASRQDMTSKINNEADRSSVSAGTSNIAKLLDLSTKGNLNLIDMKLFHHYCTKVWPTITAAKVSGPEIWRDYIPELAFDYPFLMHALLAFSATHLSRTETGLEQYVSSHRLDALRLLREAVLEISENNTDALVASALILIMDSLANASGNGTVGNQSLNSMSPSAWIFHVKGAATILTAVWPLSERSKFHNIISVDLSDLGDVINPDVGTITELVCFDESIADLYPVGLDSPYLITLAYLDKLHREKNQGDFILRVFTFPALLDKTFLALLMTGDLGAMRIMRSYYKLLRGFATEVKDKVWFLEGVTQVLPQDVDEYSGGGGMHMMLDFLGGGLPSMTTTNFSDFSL
Experiment: PBM E-score (8-mer binding enrichment) (E-score (-0.5 to 0.5)); higher = stronger / more preferred TF binding
Details: protein concentration: 200 nM; construct: GST-full length
Whole data set: some 33,000 sequences, median “E-score (-0.5 to 0.5)” near -0.043, cut for the highest 2% near 0.37. Only a selection was taken, and the highest values are over-represented in it overall.
Reported PBM E-score maps to class as: lower = under 0.003, middle = from 0.003 up to 0.2, upper = 0.2 and over

    chain_sequence  class_assignment
 0        AGTAAACG             upper
 1        GAATACTA            middle
 2        GAATACGA             upper
 3        TAAGTAAA             lower
 4        GCATACGA             upper
 5        CGTAAATC             upper
 6        AAGATTGT            middle
 7        TCAGATGA             lower
 8        TGCATGAA            middle
 9        AGTGGATC             lower
10        ACACAGCG            middle
11        AGTATGAC            middle
12        AGAGCCCG             lower
13        AGTAAACC             lower
14        GGCAACAA            middle
15        AAACGAAC             upper
16        CGTACCGC             upper
17        CCCTCGTC            middle
18        ACGAACAG             upper
19        CGGGAGGA             lower
20        TGACGACA            middle
21        GATGATAC            middle
22        AGTAAACA            middle
23        ACGAACGT             upper
24        ACTAACCT            middle
25        AAATACGA             upper
26        CGTATGAG             upper
27        GCGGTACC            middle
28        ACCTCGTC            middle
29        AGTGCTAT             lower
30        GTGACCAC             lower
31        CAACGACC             upper
32        GCCTCGGA            middle
33        TAACGACA             upper
34        ACTGTAGG             lower
35        AGCGCTTG             lower
36        CCCTCGTA             upper
37        CCGAAGGA             lower
38        AGATTGCT             lower
39        AAACGACA             upper
40        AAACGACT             upper
41        AGTATGAA             lower
42        CGTAAACA             upper
43        GGCACCAA             lower
44        AGACGAAC             upper
45        AACTAGTA             lower
46        TCATACCA             lower
47        GGTACCGA            middle
48        CCACGAAA             lower
49        ACGCTTAA            middle
50        ACTCTATA            middle
51        AAACGACG             upper
52        CAACGACG             upper
53        CACCATGC             lower
54        TCATACAA            middle
55        GCACGCGA             lower
56        GCCTCGAA            middle
57        GAGTGTGA            middle
58        CTAAATTC            middle
59        CCGGTTAG            middle
60        AGATGAAT             lower
61        GAACGACC             upper
62        CATCAGCC             lower
63        AGACGACA            middle
64        AATGGAGT             lower
65        ACCTGGAA            middle
66        CGACGACG            middle
67        CAACGAAC             upper
68        GCGAACGA             upper
69        GCGAACAA            middle
70        GAACGAAA             upper
71        ACACACTC             lower
72        GGTAAACA            middle
73        AGGGTCCC             lower
74        GCACTGGA             lower
